Test system: CAKI-1 renal
protocol notes: NCI tumour cell line growth inhibition, 48 h
Entries and their measured GI50 follow.

Worked cases, answers included:
> print(dat)
                             smiles.input  endpoint.result
1       Cc1cccc(CNc2c3ccccc3nc3ccccc23)c1          1610 nM
2  COc1ccc(C2=C(c3ccc(OC)cc3)C(=O)OC2)cc1           489 nM

Query: Quickly give me recorded GI50 for `CN(C)Cc1ccc(NC(=O)c2cncc(C#Cc3cnc(N)c4ncccc34)c2)cc1C(F)(F)F`
Response: 3480 nM

====

System: CCRF-CEM leukemia
protocol notes: NCI tumour cell line growth inhibition, 48 h
Entries and their measured TGI follow.

Worked cases, answers included:
compound	reported property	endpoint result
COC(=O)NC1(NC(=O)OC)NC(=O)c2ccccc2N1	TGI	> 100 µM
O=[N+]([O-])c1ccc(C[P+]2(c3ccccc3)CCCCC2)cc1 (tested in a mixture with another compound)	TGI	> 100 µM
O=C(O)c1ccc2c(O)c(O)ccc2c1	TGI	> 31.6 µM

Query: Quickly give me recorded TGI for `COc1cc(/C=C/C(=O)CC(=O)/C=C/c2cc(C)c(O)c(OC)c2)cc(C)c1O`
Response: > 100 µM

Query: Quickly give me recorded TGI for `CN[C@@H](C)C(=O)N[C@H](C(=O)N1CCC[C@H]1c1nc(C(=O)c2ccc(F)cc2)cs1)C1CCCCC1`
Response: > 84.6 µM

Query: Quickly give me recorded TGI for `O=C(NCCCN1CCN(CCCNC(=O)c2cccc3ccccc23)CC1)c1cccc2ccccc12`
Response: > 100 µM

Query: Quickly give me recorded TGI for `ClCCCN1CCN(CCCl)CC1`
Response: 437 µM

Query: Quickly give me recorded TGI for `COC(=O)c1ccc(OCCn2nnc(C(=O)NN)c2C(=O)NN)cc1`
Response: > 100 µM

Query: Quickly give me recorded TGI for `O=C1CCCC2=C1CC1=C(CCCC1=O)N2c1ccc(Cl)cc1`
Response: > 100 µM

Query: Quickly give me recorded TGI for `O=C(c1ccc(Cl)cc1Cl)N1CCN(C(=O)c2ccc(Cl)cc2Cl)C1=S`
Response: 38.5 µM

Query: Quickly give me recorded TGI for `COC(=O)[C@@]12CSC[C@]1(C(=O)OC)N[C@@H](c1ccccc1O)C2`
Response: > 100 µM
